- System: Mus musculus
- assay.details: Biodistribution in mouse B16F0 cells bearing C57B16 mouse tumor at 1.26 to 5.29 MBq, iv after 14 days
- Assay type: ADME, organism-based, Neoplasm
- run.parameters: in vivo, 336 h
Mark 1 (yes) for reported Drug uptake of 0.6 % ID/g or greater; mark 0 (no) for anything smaller.

[
  {
    "molecule.smiles": "CCN(CCCc1ccnc(F)c1)CCNC(=O)c1cnc2cc([125I])ccc2n1.Cl.Cl",
    "target.of.assay": "Mus musculus",
    "category": "1 (yes)"
  },
  {
    "molecule.smiles": "CCN(CCNC(=O)c1ccc2cc([125I])ccc2n1)CCOc1cccnc1F.Cl.Cl",
    "target.of.assay": "Mus musculus",
    "category": "0 (no)"
  },
  {
    "molecule.smiles": "CCN(CCNC(=O)c1ccc2cncc([125I])c2n1)CCOc1cccnc1F.Cl.Cl",
    "target.of.assay": "Mus musculus",
    "category": "0 (no)"
  },
  {
    "molecule.smiles": "CCN(CCNC(=O)c1cccc2nc3cc([125I])ccc3nc12)CCOc1cccnc1F.Cl.Cl",
    "target.of.assay": "Mus musculus",
    "category": "1 (yes)"
  },
  {
    "molecule.smiles": "CCN(CCNC(=O)c1cn2cc([125I])ccc2n1)CCOc1cccnc1F.Cl.Cl",
    "target.of.assay": "Mus musculus",
    "category": "1 (yes)"
  },
  {
    "molecule.smiles": "CCN(CCNC(=O)c1cnc2cc([125I])ccc2n1)CCNc1cccc(F)n1.Cl.Cl",
    "target.of.assay": "Mus musculus",
    "category": "0 (no)"
  },
  {
    "molecule.smiles": "CCN(CC)Cc1ccnc(F)c1CNC(=O)c1cnc2cc([125I])ccc2n1.Cl.Cl",
    "target.of.assay": "Mus musculus",
    "category": "1 (yes)"
  },
  {
    "molecule.smiles": "CCN(CCNC(=O)c1cnc2cc([125I])ccc2n1)CCc1ccnc(F)c1.Cl.Cl",
    "target.of.assay": "Mus musculus",
    "category": "1 (yes)"
  },
  {
    "molecule.smiles": "CCN(CCNC(=O)c1cccc2c(=O)c3cc([125I])ccc3[nH]c12)CCOc1cccnc1F.Cl",
    "target.of.assay": "Mus musculus",
    "category": "1 (yes)"
  },
  {
    "molecule.smiles": "CCN(CCNC(=O)c1cnc2cc([125I])ccc2n1)Cc1ccnc(F)c1.Cl.Cl",
    "target.of.assay": "Mus musculus",
    "category": "1 (yes)"
  }
]
